SYSTEM UNDER TEST: T1, human GITR (human, UniProt Q9Y5U5 26-241)
T1 sequence: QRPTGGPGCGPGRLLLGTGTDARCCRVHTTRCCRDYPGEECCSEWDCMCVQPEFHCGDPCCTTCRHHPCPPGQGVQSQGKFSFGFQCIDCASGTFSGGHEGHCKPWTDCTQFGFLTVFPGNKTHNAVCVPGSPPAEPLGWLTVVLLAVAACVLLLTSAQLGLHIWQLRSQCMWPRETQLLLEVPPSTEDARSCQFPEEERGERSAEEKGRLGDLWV
EXPERIMENT NOTES: cell-based or functional assay
RECORDED METRIC: Activation EC50 ng/mL (IFNg secretion) (ng/mL)
Value expressed in ng/mL; do not type the unit.

Prompt: I'd like to know its Activation EC50 ng/mL (IFNg secretion). The binder in question is 9H6v3 (antibody, human IgG1, kappa, V domains shown, Engineered variant; also called Ab46; SS-13806) VH: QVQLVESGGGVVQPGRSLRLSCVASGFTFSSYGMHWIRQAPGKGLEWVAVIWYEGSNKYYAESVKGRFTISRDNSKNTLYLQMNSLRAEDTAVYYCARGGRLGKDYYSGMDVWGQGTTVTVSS VL: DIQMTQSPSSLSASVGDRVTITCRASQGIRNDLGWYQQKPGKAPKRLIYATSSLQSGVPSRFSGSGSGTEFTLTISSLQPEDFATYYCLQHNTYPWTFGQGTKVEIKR
Response: 0.06

Source listed as patent US20150064204A1.
